System: Plasmodium berghei
Test: Luciferase/luciferin-expressing antifolate-resistant parasites were used to infect a culture of HepG2 cells that were pre-incubated with compounds. Infected hepatocytes emit light due to the luciferase reaction. Assay results are presented as the percent inhibition of light emission compared to control. […]
Format: functional
Settings: sporozoite, HEPG2TOX_HILL_SLOPE 6.45, HEPG2TOX_R_SQUARED 0.103, PBLUC_HILL_SLOPE 3.77, PBLUC_R_SQUARED 0.847, read-out: LUCIFERASE INFECTION ASSAY - IC50
Measured Attribute: pIC50
// returns pIC50 (minus log10 of molar concentration), number only

# compound `CNC(=O)c1ccc(CN(Cc2ccco2)c2nc(C(F)(F)F)nc3ccccc23)cc1` ; its pIC50 = 5.70

* * *

Tested on: Plasmodium berghei
Assay: Luciferase/luciferin-expressing antifolate-resistant parasites were used to infect a culture of HepG2 cells that were pre-incubated with compounds. Infected hepatocytes emit light due to the luciferase reaction. Assay results are presented as the percent inhibition of light emission compared to control. […]
Assay type: functional
Conditions: sporozoite, FFLUC_HILL_SLOPE 17.8, FFLUC_R_SQUARED 0.335, read-out: LUCIFERASE INFECTION ASSAY - IC50
Measured Attribute: IC50

# molecule O=C(O)c1cccc2cccc([S+]([O-])c3ccccc3CO)c12 (stereo unspecified) ; its IC50 = > 10.1 µM

* * *

System: Plasmodium berghei
Assay: Luciferase/luciferin-expressing antifolate-resistant parasites were used to infect a culture of HepG2 cells that were pre-incubated with compounds. Infected hepatocytes emit light due to the luciferase reaction. Assay results are presented as the percent inhibition of light emission compared to control. […]
Assay type: functional
Conditions: sporozoite, read-out: LUCIFERASE INFECTION ASSAY - IC50
Measured Attribute: IC50

# compound `O=C1S/C(=C\c2ccccc2)C(=O)N1CCn1cnnn1` ; its IC50 = > 10 µM

# compound `Cc1cccc(Cn2nc(C(C)(C)C)cc2-c2nnc(SCc3ccccc3)n2C2CCCCC2)c1` ; its IC50 = > 6.6 µM

* * *

System: Plasmodium berghei
Experiment: Luciferase/luciferin-expressing antifolate-resistant parasites were used to infect a culture of HepG2 cells that were pre-incubated with compounds. Infected hepatocytes emit light due to the luciferase reaction. Assay results are presented as the percent inhibition of light emission compared to control. […]
Type: functional
Conditions: sporozoite, HEPG2TOX_HILL_SLOPE 1.48, HEPG2TOX_R_SQUARED 0.941, PBLUC_HILL_SLOPE 12.2, PBLUC_R_SQUARED 0.462, read-out: LUCIFERASE INFECTION ASSAY - IC50
Measured Attribute: pIC50
// returns pIC50 (minus log10 of molar concentration), number only

# molecule `Cc1ccc(Cn2nc(C)c(/C=C/C(=O)N3CCN(S(=O)(=O)c4cccs4)CC3)c2C)cc1` ; its pIC50 = 5.02

* * *

Test system: Plasmodium berghei
Assay: Luciferase/luciferin-expressing antifolate-resistant parasites were used to infect a culture of HepG2 cells that were pre-incubated with compounds. Infected hepatocytes emit light due to the luciferase reaction. Assay results are presented as the percent inhibition of light emission compared to control. […]
Type: functional
Details: sporozoite, HEPG2TOX_HILL_SLOPE 16.6, HEPG2TOX_R_SQUARED 0.582, PBLUC_HILL_SLOPE 7.49, PBLUC_R_SQUARED 0.197, read-out: LUCIFERASE INFECTION ASSAY - IC50
Measured Attribute: IC50 (µM)
Numeric answer only, unit µM assumed.

# compound CCCCC#CC1(O)c2ccccc2C(=O)N1c1ccccc1 (stereo unspecified) ; its IC50 = 7.01

* * *

Tested on: Plasmodium berghei
Assay: Luciferase/luciferin-expressing antifolate-resistant parasites were used to infect a culture of HepG2 cells that were pre-incubated with compounds. Infected hepatocytes emit light due to the luciferase reaction. Assay results are presented as the percent inhibition of light emission compared to control. […]
Type: functional
Details: sporozoite, FFLUC_HILL_SLOPE 12.1, FFLUC_R_SQUARED 0.466, HEPG2TOX_HILL_SLOPE 15.2, HEPG2TOX_R_SQUARED 0.81, PBLUC_HILL_SLOPE 12.5, PBLUC_R_SQUARED 0.644, read-out: LUCIFERASE INFECTION ASSAY - IC50
Measured Attribute: pIC50
// returns pIC50 (minus log10 of molar concentration), number only

# compound `CCc1cccc(CC)c1N(C(C)=O)c1nc(/C=C/C(=O)c2ccc3c(c2)OCCO3)cs1` ; its pIC50 = 5.49

* * *

Tested on: Plasmodium berghei
Experiment: Luciferase/luciferin-expressing antifolate-resistant parasites were used to infect a culture of HepG2 cells that were pre-incubated with compounds. Infected hepatocytes emit light due to the luciferase reaction. Assay results are presented as the percent inhibition of light emission compared to control. […]
Type: functional
Conditions: sporozoite, HEPG2TOX_HILL_SLOPE 2.64, HEPG2TOX_R_SQUARED 0.99, PBLUC_HILL_SLOPE 1.99, PBLUC_R_SQUARED 0.779, read-out: LUCIFERASE INFECTION ASSAY - IC50
Measured Attribute: pIC50
// returns pIC50 (minus log10 of molar concentration), number only

# compound `COc1ccc(-c2cnc3cnc(-c4cccc(F)c4)cn23)cc1` ; its pIC50 = 5.63

* * *

Test system: Plasmodium berghei
Assay: Luciferase/luciferin-expressing antifolate-resistant parasites were used to infect a culture of HepG2 cells that were pre-incubated with compounds. Infected hepatocytes emit light due to the luciferase reaction. Assay results are presented as the percent inhibition of light emission compared to control. […]
Assay type: functional
Settings: sporozoite, HEPG2TOX_HILL_SLOPE 2.09, HEPG2TOX_R_SQUARED 0.987, PBLUC_HILL_SLOPE 1.97, PBLUC_R_SQUARED 0.365, read-out: LUCIFERASE INFECTION ASSAY - IC50
Measured Attribute: pIC50
// returns pIC50 (minus log10 of molar concentration), number only

# compound CCOC(=O)c1ccc(N2CCN(C(C)c3nc(C(C)C)no3)CC2)nc1 (stereo unspecified) ; its pIC50 = 5.37

* * *

Tested on: Plasmodium berghei
Test: Luciferase/luciferin-expressing antifolate-resistant parasites were used to infect a culture of HepG2 cells that were pre-incubated with compounds. Infected hepatocytes emit light due to the luciferase reaction. Assay results are presented as the percent inhibition of light emission compared to control. […]
Type: functional
Conditions: sporozoite, PBLUC_HILL_SLOPE 1.23, PBLUC_R_SQUARED 0.697, read-out: LUCIFERASE INFECTION ASSAY - IC50
Measured Attribute: IC50 (µM)
Numeric answer only, unit µM assumed.

# compound `COc1ccccc1CNC(=O)N/C=C/c1ccccc1Cl` ; its IC50 = 5.38

* * *

System: Plasmodium berghei
Assay: Luciferase/luciferin-expressing antifolate-resistant parasites were used to infect a culture of HepG2 cells that were pre-incubated with compounds. Infected hepatocytes emit light due to the luciferase reaction. Assay results are presented as the percent inhibition of light emission compared to control. […]
Assay type: functional
Settings: sporozoite, HEPG2TOX_HILL_SLOPE 1.27, HEPG2TOX_R_SQUARED 0.681, PBLUC_HILL_SLOPE 2.52, PBLUC_R_SQUARED 0.516, read-out: LUCIFERASE INFECTION ASSAY - IC50
Measured Attribute: pIC50
// returns pIC50 (minus log10 of molar concentration), number only

Record `Cc1cc(=O)nc(N/N=C/c2ccccc2O)[nH]1` ; system Plasmodium berghei; pIC50 = 5.16

* * *

Tested on: Plasmodium berghei
Assay: Luciferase/luciferin-expressing antifolate-resistant parasites were used to infect a culture of HepG2 cells that were pre-incubated with compounds. Infected hepatocytes emit light due to the luciferase reaction. Assay results are presented as the percent inhibition of light emission compared to control. […]
Assay type: functional
Conditions: sporozoite, HEPG2TOX_HILL_SLOPE 0.327, HEPG2TOX_R_SQUARED 0.288, read-out: LUCIFERASE INFECTION ASSAY - IC50
pIC50: −log10 of the molar value.
Measured Attribute: pIC50

# compound `CCOC(=O)c1sc(N)c(C#N)c1CSc1nnnn1-c1ccccc1` ; its pIC50 = < 5.00

* * *

Tested on: Plasmodium berghei
Assay: Luciferase/luciferin-expressing antifolate-resistant parasites were used to infect a culture of HepG2 cells that were pre-incubated with compounds. Infected hepatocytes emit light due to the luciferase reaction. Assay results are presented as the percent inhibition of light emission compared to control. […]
Assay type: functional
Settings: sporozoite, FFLUC_HILL_SLOPE 3.04, FFLUC_R_SQUARED 0.885, read-out: LUCIFERASE INFECTION ASSAY - IC50
Measured Attribute: IC50

# compound `CC(=O)c1ccc(NC(=O)N2[C@@H]3CC[C@@H](C3)[C@H]2c2nc3cccc(OCc4ccccc4)c3[nH]2)cc1` ; its IC50 = > 10 µM

* * *

Tested on: Plasmodium berghei
Assay: Luciferase/luciferin-expressing antifolate-resistant parasites were used to infect a culture of HepG2 cells that were pre-incubated with compounds. Infected hepatocytes emit light due to the luciferase reaction. Assay results are presented as the percent inhibition of light emission compared to control. […]
Type: functional
Conditions: sporozoite, FFLUC_HILL_SLOPE 12.4, FFLUC_R_SQUARED 0.51, HEPG2TOX_HILL_SLOPE 7.25, HEPG2TOX_R_SQUARED 0.253, PBLUC_HILL_SLOPE 65.5, PBLUC_R_SQUARED 0.659, read-out: LUCIFERASE INFECTION ASSAY - IC50
Measured Attribute: pIC50
// returns pIC50 (minus log10 of molar concentration), number only

# molecule `O=C(c1cc(C(=O)N2CCCC2)c2nc3scc(-c4ccccc4)c3c(=O)n2c1)c1cc(F)ccc1O` ; its pIC50 = 5.01
